# tested-on: human 5-HT1a receptors (Homo sapiens, UniProt P08908)
# Construct: expressed in transfected cells; host or cells: CHO K1 cells
# measurement-notes: Competition radioligand binding, h5-HT1a
# assay-conditions: [3H]5-CT; membranes of CHO K1 cells; read-out: Ki 5-HT1A
Decide using Ki alone. Strictly below 600 nM: Satisfied. Equal to or above 600 nM: Not satisfied.

Some entries whose results are on file:
>>> class_label("COc1ccc(C(C)=O)cc1CN1CCC(CNC(=O)NC(=N)NCc2cccc3ccccc23)CC1")
"Satisfied"
>>> class_label("COc1ccccc1CN1CCN(C(=O)NC(=N)NCc2cccc3ccccc23)CC1")
"Not satisfied"
>>> class_label("N=C(NCc1cccc2ccccc12)NC(=O)NCC1CCN(Cc2ccccc2)CC1")
"Satisfied"

Is the reported Ki for CNC(=O)NC(=N)NCc1c(OC)cccc1OC strictly below 600 nM?
Satisfied

Is the reported Ki for C[C@@H](O)CNC(=O)NC(=N)NCc1cccc2ccccc12 strictly below 600 nM?
Not satisfied

Is the reported Ki for N=C(NCc1cccc2ccccc12)NC(=O)N1CCC(C(N)=O)CC1 strictly below 600 nM?
Not satisfied

Is the reported Ki for N=C(NCc1cccc2ccccc12)NC(=O)NCC1CCN(Cc2ccc3c(c2)OCO3)CC1 strictly below 600 nM?
Satisfied

Is the reported Ki for N=C(NCc1cccc2ccccc12)NC(=O)NC1CCN(Cc2ccccc2)CC1 strictly below 600 nM?
Not satisfied

###

# tested-on: human 5-HT1a receptors (Homo sapiens, UniProt P08908)
# Construct: expressed in transfected cells; host or cells: CHO K1 cells
# Sequence (P08908 1-422): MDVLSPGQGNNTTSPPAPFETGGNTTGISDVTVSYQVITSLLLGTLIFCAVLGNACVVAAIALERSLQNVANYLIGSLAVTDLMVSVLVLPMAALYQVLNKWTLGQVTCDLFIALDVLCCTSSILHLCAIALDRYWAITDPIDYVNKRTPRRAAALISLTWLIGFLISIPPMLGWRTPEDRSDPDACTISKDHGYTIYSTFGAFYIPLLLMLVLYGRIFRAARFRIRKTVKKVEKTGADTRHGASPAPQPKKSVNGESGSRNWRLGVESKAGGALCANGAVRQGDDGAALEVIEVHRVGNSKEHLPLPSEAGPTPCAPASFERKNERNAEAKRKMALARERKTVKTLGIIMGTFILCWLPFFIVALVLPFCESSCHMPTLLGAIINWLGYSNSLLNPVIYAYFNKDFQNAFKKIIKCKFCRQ
# measurement-notes: Competition radioligand binding, h5-HT1a
# assay-conditions: [3H]5-CT; membranes of CHO K1 cells; read-out: Ki 5-HT1A
Decide using Ki alone. Strictly below 700 nM: Fulfilled. Equal to or above 700 nM: Not fulfilled.

Some entries whose results are on file:
>>> class_label("COc1cccc(CN2CCC(CNC(=O)NC(=N)NCc3cccc4ccccc34)CC2)c1")
"Fulfilled"
>>> class_label("N=C(NCc1cccc2ccccc12)NC(=O)NCC1CCN(Cc2ccc(F)cc2F)CC1")
"Fulfilled"
>>> class_label("CC(=O)Nc1ccc(CN2CCC(CNC(=O)NC(=N)NCc3cccc4ccccc34)CC2)cc1")
"Fulfilled"

Is the reported Ki for N=C(NCc1cccc2ccccc12)NC(=O)N1CCN(C/C=C/c2ccccc2)CC1 strictly below 700 nM?
Not fulfilled

Is the reported Ki for COc1ccc(CN2CCC(CNC(=O)NC(=N)NCc3cccc4ccccc34)CC2)cc1C strictly below 700 nM?
Not fulfilled

Is the reported Ki for N=C(NCc1cccc2ccccc12)NC(=O)N[C@H]1C[C@@H]2CC[C@H]1C2 strictly below 700 nM?
Fulfilled

Is the reported Ki for N=C(NCc1cccc2ccccc12)NC(=O)NC[C@@H]1CCCC[C@H]1O strictly below 700 nM?
Fulfilled

Is the reported Ki for N=C(NCc1cccc2ccccc12)NC(=O)NCC1CCN(Cc2cccc(Cl)c2)CC1 strictly below 700 nM?
Fulfilled

###

# tested-on: human 5-HT6 (h5-HT6) receptors (Homo sapiens, UniProt P50406)
# Construct: purchased Receptor Biology, Inc. (Beltsville, Md.); host or cells: HEK-293 cells
# Sequence (P50406 whole entry): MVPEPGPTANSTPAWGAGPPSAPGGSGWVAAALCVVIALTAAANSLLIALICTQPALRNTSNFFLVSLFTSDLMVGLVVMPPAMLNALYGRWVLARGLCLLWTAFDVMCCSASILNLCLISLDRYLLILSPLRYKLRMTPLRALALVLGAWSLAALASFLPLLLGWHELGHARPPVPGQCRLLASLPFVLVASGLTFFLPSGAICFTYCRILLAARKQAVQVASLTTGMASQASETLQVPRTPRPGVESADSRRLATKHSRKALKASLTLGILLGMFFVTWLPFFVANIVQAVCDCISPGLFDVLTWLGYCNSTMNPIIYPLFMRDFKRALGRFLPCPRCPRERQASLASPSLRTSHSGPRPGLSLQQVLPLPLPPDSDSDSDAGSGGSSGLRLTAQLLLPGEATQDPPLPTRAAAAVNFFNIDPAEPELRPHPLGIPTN
# measurement-notes: Competition radioligand binding, h5-HT6
# assay-conditions: [3H]LSD; membranes of HEK-293 cells; read-out: Ki 5-HT6
Listing: pKi of selected compounds
// pKi is dimensionless: -log10 of concentration (M)

// known answers, use as guide
>>> numeric_readout("N=C(NCc1cccc2ccccc12)NC(=O)N1CCC2(CC1)C(=O)NCN2c1ccccc1 [Example 36]")
6.13
>>> numeric_readout("N=C(NCc1cccc2ccccc12)NC(=O)NCc1cccnc1 [Example 18]")
6.46
>>> numeric_readout("N=C(NCc1cccc2ccccc12)NC(=O)NCC1CCN(Cc2ccccc2)CC1 [Example 75]")
5.40
>>> numeric_readout("N=C(NCc1cccc2ccccc12)NC(=O)NC1CCCc2ccccc21 (centres unmarked) [Example 40]")
6.23
>>> numeric_readout("N=C(NCc1cccc2ccccc12)NC(=O)NCC1CCN(Cc2ccc([N+](=O)[O-])cc2)CC1 [Example 60]")
5.46
>>> numeric_readout("COc1ccc(C(C)=O)cc1CN1CCC(CNC(=O)NC(=N)NCc2cccc3ccccc23)CC1 [Example 63]")
5.52

Let us move to another entry and its pKi.
Query N=C(NCc1cccc2ccccc12)NC(=O)N[C@H]1C[C@@H]2CC[C@H]1C2 [Example 23] on human 5-HT6 (h5-HT6) receptors (Homo sapiens, UniProt P50406); pKi returned: 5.71

###

# tested-on: human D2S dopamine (hD2S-DA) receptors (Homo sapiens, UniProt P14416)
# Construct: purchased Receptor Biology, Inc. (Beltsville, Md.); host or cells: A9 L cells
# Sequence (P14416 1-414 isoform P14416-2): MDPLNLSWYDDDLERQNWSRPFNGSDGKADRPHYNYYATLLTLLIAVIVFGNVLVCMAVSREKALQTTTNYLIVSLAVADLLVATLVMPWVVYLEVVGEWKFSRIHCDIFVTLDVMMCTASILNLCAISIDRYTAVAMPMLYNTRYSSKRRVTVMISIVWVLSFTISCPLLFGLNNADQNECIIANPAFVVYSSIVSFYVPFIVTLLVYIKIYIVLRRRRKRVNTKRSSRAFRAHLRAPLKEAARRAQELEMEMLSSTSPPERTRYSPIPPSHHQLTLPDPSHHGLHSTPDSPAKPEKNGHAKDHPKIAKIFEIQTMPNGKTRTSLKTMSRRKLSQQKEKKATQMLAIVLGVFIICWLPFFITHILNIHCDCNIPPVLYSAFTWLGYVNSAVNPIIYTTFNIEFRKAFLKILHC
# measurement-notes: Competition radioligand binding, hD2S dopamine
# assay-conditions: [3H]Spiperone; membranes of A9 L cells; read-out: Ki D2
recorded-metric: pKi
// pKi is dimensionless: -log10 of concentration (M)

// known answers, use as guide
>>> numeric_readout("N=C(NCc1cccc2ccccc12)NC(=O)NCc1c(N)cccc1F [Example 44]")
6.05
>>> numeric_readout("N=C(NCc1cccc2ccccc12)NC(=O)NCC1CCN(Cc2cccc(Cl)c2)CC1 [Example 73]")
6.08
>>> numeric_readout("N=C(NCc1cccc2ccccc12)NC(=O)N[C@H]1C[C@@H]2CC[C@H]1C2 [Example 23]")
6.55

Query COc1ccccc1N1CCN(C(=O)NC(=N)NCc2cccc3ccccc23)CC1 [Example 21] on human D2S dopamine (hD2S-DA) receptors (Homo sapiens, UniProt P14416); pKi returned: 6.05

###

Listing: pKi of selected molecules
# tested-on: human 5-HT1a receptors (Homo sapiens)
# Construct: expressed in transfected cells; host or cells: CHO K1 cells
# measurement-notes: Competition radioligand binding, h5-HT1a
// pKi is dimensionless: -log10 of concentration (M)

// known answers, use as guide
>>> numeric_readout("COc1cccc(OC)c1CNC(=N)NC(=O)N1CCC(Nc2ccccc2)CC1 [Example 81]")
5.53
>>> numeric_readout("N=C(NCc1c(Cl)cccc1Oc1ccccc1)NC(=O)N1CCC(Nc2ccccc2)CC1 [Example 80]")
5.44

Let us move to another entry and its pKi.
Value of pKi reported for the molecule N=C(NCc1cccc2ccccc12)NC(=O)N1CCC(Nc2ccccc2)CC1 [Example 25] is 5.59

###

# tested-on: human 5-HT7B (h5-HT7b) receptors (Homo sapiens)
# Construct: expressed in transfected cells
# Sequence (P34969 1-432 limits assumed): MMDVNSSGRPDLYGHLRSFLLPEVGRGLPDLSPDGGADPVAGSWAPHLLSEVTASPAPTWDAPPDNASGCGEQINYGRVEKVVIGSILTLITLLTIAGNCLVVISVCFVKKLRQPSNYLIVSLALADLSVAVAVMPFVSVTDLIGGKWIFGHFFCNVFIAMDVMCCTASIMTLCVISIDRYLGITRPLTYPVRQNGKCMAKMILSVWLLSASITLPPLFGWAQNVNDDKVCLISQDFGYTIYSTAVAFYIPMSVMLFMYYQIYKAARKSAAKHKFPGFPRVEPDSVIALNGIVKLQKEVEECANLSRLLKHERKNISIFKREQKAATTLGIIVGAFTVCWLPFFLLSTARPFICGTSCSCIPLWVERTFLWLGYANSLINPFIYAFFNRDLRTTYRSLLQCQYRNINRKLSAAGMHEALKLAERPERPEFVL
# measurement-notes: Competition radioligand binding, h5-HT7b
# assay-conditions: [3H]5-CT; membranes of HEK 293 cells; read-out: Ki 5-HT7
Listing: Ki of selected molecules
Provide the reading as a plain figure in nM.

// known answers, use as guide
>>> numeric_readout("CCOC(=O)N1CCN(C(=O)NC(=N)NCc2cccc3ccccc23)CC1")
15
>>> numeric_readout("N=C(NCc1cccc2ccccc12)NC(=O)N1CCCC(C(N)=O)C1 (stereo not shown)")
180
>>> numeric_readout("N=C(NCc1cccc2ccccc12)NC(=O)NC1CCc2ccccc21 (stereo not shown)")
22

Let us move to another entry and its Ki.
Value of Ki reported for the molecule Cc1cccc(CN2CCC(CNC(=O)NC(=N)NCc3cccc4ccccc34)CC2)c1 is 15

###

# tested-on: human D2S dopamine (hD2S-DA) receptors (Homo sapiens)
# Construct: purchased Receptor Biology, Inc. (Beltsville, Md.); host or cells: A9 L cells
# measurement-notes: Competition radioligand binding, hD2S dopamine
Listing: Ki of selected compounds
Provide the reading as a plain figure in nM.

>>> numeric_readout("COc1cccc(OC)c1CNC(=N)NC(=O)N1CCC(Nc2ccccc2)CC1 [Example 81]")
1920

Let us move to another entry and its Ki.
Query N=C(NCc1cccc2ccccc12)NC(=O)N1CCC(Nc2ccccc2)CC1 [Example 25] on human D2S dopamine (hD2S-DA) receptors (Homo sapiens); Ki returned: 1470

Data origin: patent US20040044037A1
